- Target Or Test System: plasma purified human complement protein C3 (human) (UniProt P01024)
- Sequence (P01024 23-667, chain 1 of 2): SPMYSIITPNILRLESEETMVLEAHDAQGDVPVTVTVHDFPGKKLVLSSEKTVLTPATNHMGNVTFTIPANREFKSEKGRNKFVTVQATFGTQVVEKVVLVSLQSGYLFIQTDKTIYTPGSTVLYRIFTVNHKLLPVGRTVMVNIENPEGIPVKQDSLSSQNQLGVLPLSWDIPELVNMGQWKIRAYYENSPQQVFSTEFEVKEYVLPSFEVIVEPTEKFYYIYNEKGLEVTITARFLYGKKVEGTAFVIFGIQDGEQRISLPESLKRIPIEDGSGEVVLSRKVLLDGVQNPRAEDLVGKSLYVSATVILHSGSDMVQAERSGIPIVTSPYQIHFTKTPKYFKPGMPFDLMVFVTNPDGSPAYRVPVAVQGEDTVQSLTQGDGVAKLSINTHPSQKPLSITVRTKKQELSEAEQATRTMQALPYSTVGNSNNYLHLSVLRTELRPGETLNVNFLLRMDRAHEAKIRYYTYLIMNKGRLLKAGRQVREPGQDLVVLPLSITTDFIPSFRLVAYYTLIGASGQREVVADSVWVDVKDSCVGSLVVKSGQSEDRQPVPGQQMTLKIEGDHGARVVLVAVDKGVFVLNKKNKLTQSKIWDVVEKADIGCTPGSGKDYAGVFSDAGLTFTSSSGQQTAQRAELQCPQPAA
- Sequence (P01024 672-1663, chain 2 of 2): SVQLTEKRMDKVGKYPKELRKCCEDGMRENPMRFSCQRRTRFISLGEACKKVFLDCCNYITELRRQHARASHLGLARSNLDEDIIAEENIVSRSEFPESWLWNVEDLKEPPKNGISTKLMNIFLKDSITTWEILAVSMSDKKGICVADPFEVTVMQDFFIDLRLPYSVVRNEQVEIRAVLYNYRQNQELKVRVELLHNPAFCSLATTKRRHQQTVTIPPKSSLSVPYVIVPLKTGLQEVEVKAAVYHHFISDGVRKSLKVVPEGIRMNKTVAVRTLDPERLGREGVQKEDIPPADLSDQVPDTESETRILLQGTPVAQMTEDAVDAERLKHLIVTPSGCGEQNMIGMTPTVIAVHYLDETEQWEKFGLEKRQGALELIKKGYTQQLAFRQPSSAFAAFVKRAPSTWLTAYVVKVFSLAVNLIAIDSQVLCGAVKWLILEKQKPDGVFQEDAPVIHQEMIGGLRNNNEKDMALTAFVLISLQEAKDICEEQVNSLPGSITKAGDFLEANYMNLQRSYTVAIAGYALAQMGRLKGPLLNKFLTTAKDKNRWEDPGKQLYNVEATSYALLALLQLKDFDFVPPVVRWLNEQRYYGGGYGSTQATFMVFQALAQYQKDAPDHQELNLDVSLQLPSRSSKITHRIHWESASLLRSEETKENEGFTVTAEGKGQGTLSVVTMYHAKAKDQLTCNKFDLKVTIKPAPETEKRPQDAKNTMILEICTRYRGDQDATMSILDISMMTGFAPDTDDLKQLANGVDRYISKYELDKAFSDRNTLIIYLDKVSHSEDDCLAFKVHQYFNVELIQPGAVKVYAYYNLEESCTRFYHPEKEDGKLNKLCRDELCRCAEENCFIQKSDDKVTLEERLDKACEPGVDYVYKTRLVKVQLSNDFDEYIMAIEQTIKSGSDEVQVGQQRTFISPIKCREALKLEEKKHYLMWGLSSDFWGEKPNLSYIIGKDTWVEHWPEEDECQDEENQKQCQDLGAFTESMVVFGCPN
- Protocol Notes: cell-based or functional assay
Quick reference: EC50 of hC3 cleavage of the listed items.
Number in nM, nothing else.

>>> endpoint_value("MTSP-1 H40R/I41H/Y60gH/F97D/F99L/C122S/Q175M/Q192G/D217I/K224R (enzyme) VVGGTDADEGEWPWQVSLHALGQGRHCGASLISPNWLVSAAHCYIDDRGFRHSDPTQWTAFLGLHDQSQRSAPGVQERRLKRIISHPFFNDDTLDYDIALLELEKPAEYSSMVRPISLPDASHVFPAGKAIWVTGWGHTQYGGTGALILQKGEIRVINQTTCENLLPQMITPRMMCVGFLSGGVDSCGGDSGGPLSSVEADGRIFQAGVVSWGIGCAQRNRPGVYTRLPLFRDWIKENTGV")
7.94

Turning to the following binder.
Q: Answer with reported EC50 of hC3 cleavage of MTSP-1 Q38G/H40R/I41H/D60bH/F60eK/F97T/ins97aE/T98G/F99L/C122S/Q175L/V183A/Q192G (enzyme) VVGGTDADEGEWPWQVSLHALGGGRHCGASLISPNWLVSAAHCYIDHRGKRYSDPTQWTAFLGLHDQSQRSAPGVQERRLKRIISHPFFNDTEGLDYDIALLELEKPAEYSSMVRPISLPDASHVFPAGKAIWVTGWGHTQYGGTGALILQKGEIRVINQTTCENLLPQLITPRMMCAGFLSGGVDSCGGDSGGPLSSVEADGRIFQAGVVSWGDGCAQRNKPGVYTRLPLFRDWIKENTGV
Ans: 27.7

Cited source: patent US20240018502A1
